# System: ragweed (common ragweed, Ambrosia elatior)
# Experiment description: Test A postemergence
# Type: in vivo
# Condition context: Ambrosia artemisiifolia, post-emergence, 240 h, 500 g ai/ha, postemergence; visual injury, 0 to 100 scale (0 no effect, 100 complete control), approx. 10 d; read-out: Plant response rating, Ragweed
Measured parameter: pest or weed control at 500 g/ha
Remember to follow the number with its unit.

Exercise: Which pest or weed control at 500 g/ha value is on record for CN1C[C@H](c2ccc(F)c(F)c2)[C@@H](C(=O)Nc2cccc(F)c2F)C1=O ?
Key: 30%

Dear reader, for each entry below, please note its pest or weed control at 500 g/ha.
1. Cc1ccc([C@H]2CN(C)C(=O)[C@@H]2C(=O)Nc2cccc(F)c2C)cc1Cl
2. Cc1ccc([C@H]2CNC(=O)[C@@H]2C(=O)Nc2cccc(F)c2C)cc1C
3. CSc1ccccc1NC(=O)[C@H]1C(=O)NC[C@@H]1c1ccc(C)c(C)c1
4. Cc1cc([C@H]2CN(C)C(=O)[C@@H]2C(=O)Nc2ccccc2F)cc(C)c1Br

Key:
["30%", "0%", "10%", "0%"]

Hey, just so you know, these numbers are from patent US12077503B2.
